This collection of values is drawn from PubChem BioAssay (NCATS).

System: CP286
EXPERIMENTAL_DETAILS: qHTS profiling for inhibitors of Plasmodium falciparum proliferation (AID 504749); also: nearly all actives have a fitted effect of over 60% in size; also: potency is read from the fitted curve at half-maximal effect
SETTINGS: P. falciparum in erythrocytes, SYBR Green DNA, 72 h; series mostly up to 28.7 µM
Method: NIH National Institute of Allergy and Infectious Diseases [NIAID] NIH Chemical Genomics Center [NCGC] […] Because mature erythrocytes lack DNA, only Plasmodium-derived DNA is detected. NCGC Assay Protocol Summary: The SYBR Green viability assay was adapted from a method described previously (Plouffe et al., 2008). […] The following morning, fluorescence intensity at 485(14) nm excitation and 535(25) nm emission wavelengths was measured on an EnVision (Perkin Elmer) plate reader. […]
Records with an inconclusive call do not appear. Calls of active or inactive are those of the source. Calls follow the shape of the dose curve; as a rule, active = well fitted inhibition curve with a large enough effect; inconclusive = small, poorly fitted or top-dose-only effect; inactive = flat fitted curve, though single readings scatter.
ASSAY_ENDPOINT: Potency

GIVEN_SMILES: COc1cnc(NS(=O)(=O)c2ccc(N)cc2)nc1
SYSTEM_UNDER_TEST: CP286
ASSAY_VALUE: inactive
//
GIVEN_SMILES: Cc1cccc(Nc2ccncc2S(=O)(=O)NC(=O)NC(C)C)c1
SYSTEM_UNDER_TEST: CP286
ASSAY_VALUE: inactive
//
GIVEN_SMILES: Nc1ccc(S(=O)(=O)Nc2ccccn2)cc1
SYSTEM_UNDER_TEST: CP286
ASSAY_VALUE: inactive
//
GIVEN_SMILES: CNNCc1ccc(C(=O)NC(C)C)cc1
SYSTEM_UNDER_TEST: CP286
ASSAY_VALUE: inactive
//
GIVEN_SMILES: CC(=O)Oc1ccccc1C(=O)Nc1ncc([N+](=O)[O-])s1
SYSTEM_UNDER_TEST: CP286
ASSAY_VALUE: 12.6 µM (active)
//
GIVEN_SMILES: N[C@@H](C(=O)N[C@@H]1C(=O)N2C(C(=O)O)=C(Cl)CS[C@H]12)c1ccccc1
SYSTEM_UNDER_TEST: CP286
ASSAY_VALUE: inactive

---

EXPERIMENTAL_DETAILS: Quantitative High-Throughput drug screen in 47 multiple myeloma cell lines against the NCATS MIPE library collection: XG6_PLB cell viability assay (AID 1919865); also: nearly all actives have a fitted effect of over 40% in size
SETTINGS: XG6 myeloma viability, CellTiter-Glo ATP luminescence, 48 h; series mostly up to 45.8 µM
Results filed as inconclusive are left out. Active and inactive are the calls of the source. Calls follow the shape of the dose curve; as a rule, active = well fitted cell-killing curve with a large enough effect; inconclusive = small, poorly fitted or top-dose-only effect, or effect the other way; inactive = no such curve, though single readings can be large or run the other way.
Possible outcomes: active, inactive

COMPOUND: CC(C)(C#N)c1cc(Cn2cncn2)cc(C(C)(C)C#N)c1
CLASS_LABEL: inactive

COMPOUND: Cc1cccc(Nc2ccncc2S(=O)(=O)NC(=O)NC(C)C)c1
CLASS_LABEL: inactive

COMPOUND: COc1cc2nc(N3CCCN(C)CC3)nc(NC3CCN(Cc4ccccc4)CC3)c2cc1OC
CLASS_LABEL: active

COMPOUND: CC(C)C[C@H](NC(=O)[C@H](CCc1ccccc1)NC(=O)CN1CCOCC1)C(=O)N[C@@H](Cc1ccccc1)C(=O)N[C@@H](CC(C)C)C(=O)[C@@]1(C)CO1
CLASS_LABEL: active

COMPOUND: CC[C@H](NC(C)C)[C@H](O)c1ccc(O)c2[nH]c(=O)ccc12
CLASS_LABEL: inactive

COMPOUND: N[C@@H](C(=O)N[C@@H]1C(=O)N2C(C(=O)O)=C(Cl)CS[C@H]12)c1ccccc1
CLASS_LABEL: inactive

COMPOUND: O=C(N[C@H](CO)[C@H](O)c1ccc([N+](=O)[O-])cc1)C(Cl)Cl
CLASS_LABEL: inactive

COMPOUND: COc1cc(NS(=O)(=O)c2ccc(N)cc2)nc(OC)n1
CLASS_LABEL: inactive

COMPOUND: CC(=O)CC(c1ccccc1)c1c(O)c2ccccc2oc1=O (configuration not stated)
CLASS_LABEL: inactive

COMPOUND: CNNCc1ccc(C(=O)NC(C)C)cc1
CLASS_LABEL: inactive

COMPOUND: CS(=O)(=O)c1ccc([C@@H](O)[C@@H](CO)NC(=O)C(Cl)Cl)cc1
CLASS_LABEL: active

COMPOUND: CCCCc1oc2ccc(NS(C)(=O)=O)cc2c1C(=O)c1ccc(OCCCN(CCCC)CCCC)cc1
CLASS_LABEL: active
